# Protocol Description: cAMP Responsive Elements (CRE) small molecule agonists, cell-based qHTS assay (AID 1963590)
# Test Settings: CRE-bla HEK293T, beta-lactamase FRET ratio, 3 h; series mostly up to 92.4 µM
Inconclusive results are not listed. Active and inactive are the calls of the source. Calls follow the shape of the full dose curve.
Reported Endpoint: activation

Recorded activation, per entry:
# Compound, activation
measured = [
    ("COC(=O)c1ccccc1CS(=O)(=O)NC(=O)Nc1nc(OC)cc(OC)n1", "inactive"),
    ("Cc1cc(Cl)ccc1N=CN(C)C", "inactive"),
    ("CCN(N=O)C(N)=O", "inactive"),
    ("O=S(=O)(O)O", "inactive"),
    ("Clc1ccccc1Cl", "inactive"),
]

Query :: Given the compound COC[C@@H](NC(C)=O)C(=O)NCc1ccccc1 , what is its reported activation?
Result :: inactive

====

# Assay Target: Muscarinic acetylcholine receptor M1 (Homo sapiens)
# Protocol Description: Cholinergic receptor muscarinic 1 (CHRM1) small molecule agonists, cell-based qHTS assay (AID 1963589); also: nearly all actives have a fitted effect of over 35% in size
# Test Settings: CHRM1-CHO cells, agonist mode, calcium flux fluorescence; series mostly up to 76.8 µM
Calls of active or inactive are those of the source. Calls follow the shape of the full dose curve.
Reported Endpoint: activation

Recorded activation, per entry:
# Mol Smiles, activation
measured = [
    ("Oc1ccc(C(c2ccc(O)cc2)(C(F)(F)F)C(F)(F)F)cc1", "inactive"),
    ("CCCCCCCCCl", "inactive"),
    ("[Cl-].[Cl-].[Cl-].[Fe+3]", "inactive"),
    ("Oc1ccc(Cl)cc1Cl", "inactive"),
    ("CN1CCC(N(Cc2ccccc2)c2ccccc2)CC1", "inactive"),
]

Query :: Hello, I am looking for reported activation with Muscarinic acetylcholine receptor M1 (Homo sapiens) for CC(C)c1ccc(O)cc1 . Could you help?
Result :: inactive

Query :: Same for CON(C)C(=O)Nc1ccc(Cl)cc1
Result :: inactive

Query :: Same for CN(C)C(=O)Nc1cccc(C(F)(F)F)c1
Result :: inactive

Query :: Same for CC(C)(C)C(=O)C(Cl)Cl
Result :: inactive

Query :: Same for Oc1cc(Cl)ccc1Oc1ccc(Cl)cc1Cl
Result :: inactive

Query :: Same for Cc1cc(C)cc(C)c1
Result :: inactive

Query :: Same for Clc1ccc(C(c2ccc(Cl)cc2)C(Cl)Cl)cc1
Result :: inactive

Query :: Same for COc1nc(NC(C)C)nc(NC(C)C)n1
Result :: inactive

Query :: Same for C=CC(=O)OCC(CC)(COC(=O)C=C)COC(=O)C=C
Result :: inactive

====

# Assay Target: 5-hydroxytryptamine receptor 2A (Homo sapiens) (UniProt P28223)
# Sequence (P28223 whole entry, looked up): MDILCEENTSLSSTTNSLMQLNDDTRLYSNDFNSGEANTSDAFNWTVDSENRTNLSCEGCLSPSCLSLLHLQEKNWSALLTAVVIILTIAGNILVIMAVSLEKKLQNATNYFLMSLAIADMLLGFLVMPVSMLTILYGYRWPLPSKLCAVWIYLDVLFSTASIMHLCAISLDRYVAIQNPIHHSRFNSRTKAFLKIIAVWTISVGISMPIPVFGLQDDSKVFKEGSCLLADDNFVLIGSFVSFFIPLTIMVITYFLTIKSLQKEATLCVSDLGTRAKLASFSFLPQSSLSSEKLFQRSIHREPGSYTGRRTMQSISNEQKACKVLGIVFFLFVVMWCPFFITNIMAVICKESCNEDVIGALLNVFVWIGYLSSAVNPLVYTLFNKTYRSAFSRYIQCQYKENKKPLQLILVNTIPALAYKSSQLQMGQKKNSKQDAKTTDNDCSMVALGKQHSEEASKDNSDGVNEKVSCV
# Protocol Description: 5-hydroxytryptamine receptor 2A (HTR2A) small molecule antagonists, cell-based qHTS assay (AID 1963586); also: nearly all actives have a fitted effect of over 45% in size
# Test Settings: HTR2A-CHO cells, DOI-induced calcium flux, fluorescence; series mostly up to 61.5 µM
Results filed as inconclusive are left out. Calls of active or inactive are those of the source. The call rests on the fitted dose curve.
Mark one answer only. Choices: T (active), F (inactive)

Example results:
# Compound, Category
rows = [
    ("CCOP(=O)(O)OCC (tested in a mixture with another compound)", "F"),
    ("Nc1ccc(Cl)cc1", "F"),
    ("OCCOc1ccccc1", "F"),
    ("O=C(NC(=O)c1c(F)cccc1F)Nc1cc(Cl)c(OC(F)(F)C(F)C(F)(F)F)cc1Cl (stereo not given)", "F"),
    ("C1CCC(NC2CCCCC2)CC1", "F"),
    ("Cc1ncc(CNC(=O)N(CCCl)N=O)c(N)n1", "F"),
]

Consider the record given below.
Query :: Recorded test call requested for CC(=O)CC(c1ccc(Cl)cc1)c1c(O)c2ccccc2oc1=O (stereo not given)
Result :: F

Reference source for all entries: PubChem BioAssay (Tox21)
